Data provenance is ChEMBL document CHEMBL2413033.

Target: 5-hydroxytryptamine receptor 6 (Homo sapiens, UniProt P50406)
Sequence (P50406 whole entry): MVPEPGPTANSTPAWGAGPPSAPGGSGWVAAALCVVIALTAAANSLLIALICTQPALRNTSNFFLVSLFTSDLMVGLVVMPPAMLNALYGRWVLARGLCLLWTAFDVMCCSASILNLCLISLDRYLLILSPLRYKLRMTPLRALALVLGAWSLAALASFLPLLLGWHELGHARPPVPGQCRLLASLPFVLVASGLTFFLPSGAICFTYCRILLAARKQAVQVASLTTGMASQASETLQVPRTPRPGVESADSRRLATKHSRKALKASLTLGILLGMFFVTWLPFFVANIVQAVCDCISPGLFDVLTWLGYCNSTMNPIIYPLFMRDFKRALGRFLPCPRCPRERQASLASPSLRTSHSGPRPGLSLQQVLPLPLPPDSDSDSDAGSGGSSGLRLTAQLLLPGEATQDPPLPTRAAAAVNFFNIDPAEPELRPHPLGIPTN
Assay: Antagonist activity at human recombinant 5HT6 receptor expressed in HEK293 cells assessed as inhibition of 5HT-induced cAMP accumulation at 10 uM pretreated for 10 mins before 5HT addition measured after 1 hr relative to control
Type: functional, cell-based
QUANTITY MEASURED: inhibition (%)

Cc1c(/C=N/N2CCN(C)CC2)c2ccccc2n1S(=O)(=O)c1ccc(I)cc1
13.5
Cc1c(C)c(S(=O)(=O)n2c(-c3ccccc3)c(/C=N/N3CCN(C)CC3)c3ccccc32)c(C)c2c1OC(C)(C)C2
22.4
Cc1c(/C=N/N2CCN(C)CC2)c2ccccc2n1S(=O)(=O)c1ccc(-c2ccccc2)cc1
15.1

P: CN1CCN(/N=C/c2c(-c3ccccc3)n(S(=O)(=O)Cc3ccccc3)c3ccccc23)CC1
Q: Cc1c(C)c(S(=O)(=O)n2c(-c3ccccc3)c(/C=N/N3CCN(C)CC3)c3ccccc32)c(C)c2c1OC(C)(C)CC2
R: CCCCc1ccc(S(=O)(=O)n2c(-c3ccccc3)c(/C=N/N3CCN(C)CC3)c3ccccc32)cc1
### Prompt Write the entries in order, lowest recorded inhibition first. As an answer, provide the labels arranged in the order called for.
### Response R, Q, P
